- Tested on: unselective cation channels (UCC)
- Assay text: Thapsigargin (0.1 μM) stimulated Ca^2+ entry through unselective cation channels in fura-2-charged RBL-hm 1 cells
- Assay type: cell-based, rat
- Test parameters: Table 18; 10 μM test substance
Entries annotated with measured percent inhibition of Ca2+ entry
Note: unit % is implicit; provide only the numeric part.

Kindly state the measured percent inhibition of Ca2+ entry obtained for COc1cc2c(cc1OC)C(C(C(=O)N(CCc1ccc(OC)c(OC)c1OC)CCc1ccc(OC)c(OC)c1OC)c1ccccc1OC)=NCC2 (stereo not shown) with unselective cation channels (UCC).
41.8

Kindly state the measured percent inhibition of Ca2+ entry obtained for COc1cc2c(cc1OC)C(C(C(=O)N(CCc1ccc(OC)c(OC)c1OC)CCc1ccc(OC)c(OC)c1OC)c1ccc(Cl)cc1Cl)=NCC2 (stereo not shown) with unselective cation channels (UCC).
30.79

Kindly state the measured percent inhibition of Ca2+ entry obtained for COc1cc2c(cc1OC)C(C(CC1CCC1)C(=O)N(CCc1ccc(OC)c(OC)c1OC)CCc1ccc(OC)c(OC)c1OC)=NCC2 (stereo not shown) with unselective cation channels (UCC).
56.0

Kindly state the measured percent inhibition of Ca2+ entry obtained for COc1cc2c(cc1OC)C(C(C(=O)N(CCc1ccc(OC)c(OC)c1OC)CCc1ccc(OC)c(OC)c1OC)c1ccc(N=[N+]=[N-])c(I)c1)=NCC2 (stereo not shown) with unselective cation channels (UCC).
5.81

Further cases:
Kindly state the measured percent inhibition of Ca2+ entry obtained for COc1ccc(C(C(=O)N(CCc2ccc(OC)c(OC)c2OC)CCc2ccc(OC)c(OC)c2OC)C2=NCCc3cc(OC)c(OC)cc32)cc1 (stereo not shown) with unselective cation channels (UCC).
73.7

====

- Test system: unselective cation channels (UCC)
- Assay text: Thapsigargin (0.1 μM) stimulated Ca^2+ entry through unselective cation channels in fura-2-charged RBL-hm 1 cells
- Type: cell-based, rat
- Test parameters: Table 18; 10 μM test substance
# percent inhibition of Ca2+ entry >= 50% gives true, anything below gives false

# check: percent inhibition of Ca2+ entry of COc1ccc(C(C(=O)N(CCc2ccc(OC)c(OC)c2OC)CCc2ccc(OC)c(OC)c2OC)C2=NCCc3cc(OC)c(OC)cc32)cc1OC (centres unmarked) is greater than or equal to 50%
true

Now turn to the next compound.
# check: percent inhibition of Ca2+ entry of COc1cc2c(cc1OC)C(C(C(=O)N(CCc1ccc(OC)c(OC)c1OC)CCc1ccc(OC)c(OC)c1OC)c1ccc(N=[N+]=[N-])cc1)=NCC2 (centres unmarked) is greater than or equal to 50%
true

====

Entries annotated with measured percent inhibition of Ca2+ entry
- System: unselective cation channels (UCC)
- Assay text: Thapsigargin (0.1 μM) stimulated Ca^2+ entry through unselective cation channels in fura-2-charged RBL-hm 1 cells
- Assay type: cell-based, rat
- Test parameters: Table 18; 10 μM test substance
Note: unit % is implicit; provide only the numeric part.

Can you look up the measured percent inhibition of Ca2+ entry of COc1cc2c(cc1OC)C(C(C(=O)N(CCc1ccc(OC)c(OC)c1OC)CCc1ccc(OC)c(OC)c1OC)c1ccc(F)cc1)=NCC2 (stereo not drawn) for me?
54.30

Can you look up the measured percent inhibition of Ca2+ entry of COc1cc2c(cc1OC)C(C(C(=O)N(CCc1ccc(OC)c(OC)c1OC)CCc1ccc(OC)c(OC)c1OC)c1ccccc1C)=NCC2 (stereo not drawn) for me?
68.22

Lab note: next compound to report on.
Can you look up the measured percent inhibition of Ca2+ entry of COc1cccc(C(C(=O)N(CCc2ccc(OC)c(OC)c2OC)CCc2ccc(OC)c(OC)c2OC)C2=NCCc3cc(OC)c(OC)cc32)c1 (stereo not drawn) for me?
24.3
